Reference for the values: patent US20240270821A1

target: hGIPR (Homo sapiens); assay: Functional cAMP activity in the presence of 1% HSA; type: cell-based; details: read-out: cAMP Rel EC50, hGIPR
Sequence (P48546 22-466): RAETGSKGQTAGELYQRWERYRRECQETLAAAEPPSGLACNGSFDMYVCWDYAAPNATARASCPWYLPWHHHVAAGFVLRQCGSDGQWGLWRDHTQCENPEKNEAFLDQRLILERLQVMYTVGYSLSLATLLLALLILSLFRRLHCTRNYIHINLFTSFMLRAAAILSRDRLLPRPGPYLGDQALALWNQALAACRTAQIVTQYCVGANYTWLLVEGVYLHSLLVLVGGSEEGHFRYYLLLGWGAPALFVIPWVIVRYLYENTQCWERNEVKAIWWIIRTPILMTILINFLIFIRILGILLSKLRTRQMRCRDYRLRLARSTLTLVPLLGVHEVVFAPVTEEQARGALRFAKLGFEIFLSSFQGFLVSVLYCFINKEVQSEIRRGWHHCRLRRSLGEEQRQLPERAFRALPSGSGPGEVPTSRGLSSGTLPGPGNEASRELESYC
pEC50: −log10 of the molar value. Starred links: 1 amine or outer side, 2 acyl side, 3 side chain; linkers in the order of their positions; H or OH if unused. Non-standard residues stand in square brackets, D forms with d. Groups on a side chain read outwards from the residue. No end group written: not given here. *: point of attachment. C20 diacid = O=C(O)CCCCCCCCCCCCCCCCCCC(=O)*; C18 diacid = O=C(O)CCCCCCCCCCCCCCCCC(=O)*; Phe(4-CN) = N#Cc1ccc(C[C@H](N)C(=O)O)cc1; αMePhe(2-F) = C[C@](N)(Cc1ccccc1F)C(=O)O; γGlu = O=C(O)[C@H](CCC(=O)[*:2])N[*:1]; αMe4Pal = C[C@](N)(Cc1ccncc1)C(=O)O; αMeY = C[C@](N)(Cc1ccc(O)cc1)C(=O)O; 4Pal = N[C@@H](Cc1ccncc1)C(=O)O; Aad = N[C@@H](CCCC(=O)O)C(=O)O; αMeL = CC(C)C[C@](C)(N)C(=O)O; Orn = NCCC[C@H](N)C(=O)O; AEEA = NCCOCCOCC(=O)O; Aib = CC(C)(N)C(=O)O
pEC50 listing for selected substances.

[
  {
    "Substance": "Y[Aib]QGTFTSD[4Pal]S[Orn][αMeL]LD[Orn]K([AEEA-γGlu-C18 diacid])AQ[Aib]AFIE[αMeY]LLEGGPSSGAPPPSGS-NH2 [Example 933]",
    "pEC50": 7.45
  },
  {
    "Substance": "H-Y[Aib]QGTFTSD[4Pal]S[Orn][αMeL]LDKK([γGlu-γGlu-C18 diacid])AQ[Aib]AFIE[αMeY]LLEGGPSSGAPPPSGS-NH2 [Example 942]",
    "pEC50": 7.55
  },
  {
    "Substance": "H-Y[Aib]QGT[αMePhe(2-F)]TSD[Phe(4-CN)]SILLDKQAQK([AEEA-γGlu-γGlu-C20 diacid])AFIEYLLEGGPSSGEPPPSEG-NH2 [Example 352]",
    "pEC50": 7.47
  },
  {
    "Substance": "H-Y[Aib]QGTFTSD[4Pal]SQ[αMeL]LDKK([AEEA-γGlu-C18 diacid])AQ[αMe4Pal]AFIEYLIE[Aib]GPSSGAPPPSGSE-NH2 [Example 886]",
    "pEC50": 7.58
  },
  {
    "Substance": "Y[Aib]QGT[αMePhe(2-F)]TSD[4Pal]SILLDKK([γGlu-γGlu-C18 diacid])AQ[Aib]AFIEYL[Aad]EGGPSSGAPPPSGTGE-NH2 [Example 661]",
    "pEC50": 8.34
  },
  {
    "Substance": "H-Y[Aib]QGTFTSD[4Pal]SQ[αMeL]LD[Orn]K([AEEA-γGlu-C18 diacid])AQ[αMe4Pal]AFIEYLIA[Aib]GPSSGEPPPSGSEE-NH2 [Example 1095]",
    "pEC50": 8.06
  }
]
